Biological target: human V1a receptor (Homo sapiens)
Construct: expressed in transfected cells; host or cells: HEK293 cells, transiently transfected; cell membranes
Sequence (P37288 whole entry): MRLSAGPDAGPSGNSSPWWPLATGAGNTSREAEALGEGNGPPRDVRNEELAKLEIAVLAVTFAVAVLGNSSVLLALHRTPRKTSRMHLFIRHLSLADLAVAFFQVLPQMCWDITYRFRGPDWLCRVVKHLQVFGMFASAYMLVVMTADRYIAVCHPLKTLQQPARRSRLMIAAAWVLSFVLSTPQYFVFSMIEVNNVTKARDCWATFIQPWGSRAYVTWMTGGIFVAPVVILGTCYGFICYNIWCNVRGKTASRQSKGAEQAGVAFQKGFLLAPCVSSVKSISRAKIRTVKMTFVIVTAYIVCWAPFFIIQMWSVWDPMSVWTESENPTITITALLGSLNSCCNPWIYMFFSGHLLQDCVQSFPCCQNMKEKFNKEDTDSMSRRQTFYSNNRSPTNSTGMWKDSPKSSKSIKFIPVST
Assay: human V1a receptor binding study (3H-Vasopressin, SPA beads)
Conditions: membranes of HEK293 cells transiently transfected with human V1a receptor, Ki calculated using the Cheng-Prussoff equation, read-out: pKi hV1a (converted)
assayMetric: Ki (nM)
Give your result in nM as a bare value.

Reference set, count: 3
1. CC(O)(c1ccncc1)C(NCC(=O)N1CCC2(CC1)OCc1ccccc12)c1ccc(Cl)cc1 (stereo not shown): 26.3
2. O=C(CNC(c1ccc(F)cc1)c1cccs1)N1CCC2(CC1)OCc1ccccc12 (racemic): 15.8
3. O=C(CNC(c1ccccc1)c1ccccc1)N1CCC2(CC1)OCc1ccccc12: 11.7

Prompt line: Returns the measured Ki for the input molecule. Input: C[C@](O)(c1ccccn1)[C@H](NCC(=O)N1CCC2(CC1)OCc1ccccc12)c1ccc(Cl)cc1 (racemic)
Response line: 18.6
